Hi there, I'd appreciate the recorded pIC50 for every entry that follows.
# SYSTEM TESTED: CDK7/Cyclin H/MAT1 complex (Homo sapiens)
# Sequence (P50613 whole entry, species assumed): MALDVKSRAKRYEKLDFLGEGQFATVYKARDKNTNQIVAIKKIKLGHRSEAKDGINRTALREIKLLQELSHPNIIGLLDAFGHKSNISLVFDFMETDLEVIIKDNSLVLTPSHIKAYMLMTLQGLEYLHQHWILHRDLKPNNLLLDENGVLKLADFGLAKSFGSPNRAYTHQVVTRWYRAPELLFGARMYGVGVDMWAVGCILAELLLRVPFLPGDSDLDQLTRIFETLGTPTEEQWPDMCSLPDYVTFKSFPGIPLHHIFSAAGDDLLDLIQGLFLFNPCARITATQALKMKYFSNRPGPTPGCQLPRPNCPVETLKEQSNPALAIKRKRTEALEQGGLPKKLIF
# Sequence (P51946 whole entry partner, species assumed): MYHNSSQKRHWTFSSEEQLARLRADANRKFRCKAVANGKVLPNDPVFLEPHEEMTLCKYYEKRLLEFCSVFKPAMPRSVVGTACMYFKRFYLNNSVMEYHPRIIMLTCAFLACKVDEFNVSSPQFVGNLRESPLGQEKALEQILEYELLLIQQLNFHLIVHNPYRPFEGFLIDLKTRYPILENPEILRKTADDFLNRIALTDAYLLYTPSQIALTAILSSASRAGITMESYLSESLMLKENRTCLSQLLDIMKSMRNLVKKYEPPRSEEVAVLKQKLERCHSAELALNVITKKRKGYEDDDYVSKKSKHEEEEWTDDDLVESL
# Sequence (P51948 whole entry partner, species assumed): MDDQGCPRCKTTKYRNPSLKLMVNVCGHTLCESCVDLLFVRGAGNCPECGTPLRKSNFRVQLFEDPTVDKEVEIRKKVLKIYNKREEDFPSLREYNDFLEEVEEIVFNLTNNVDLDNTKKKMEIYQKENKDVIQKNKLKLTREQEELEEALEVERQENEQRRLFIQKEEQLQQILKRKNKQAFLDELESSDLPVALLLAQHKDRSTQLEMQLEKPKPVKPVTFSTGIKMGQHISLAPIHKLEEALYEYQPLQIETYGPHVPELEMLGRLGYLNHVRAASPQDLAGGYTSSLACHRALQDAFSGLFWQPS
# ASSAY: CDK7 inhibition assay (Caliper/LabChip EZ Reader kinase assay)
# Type: biochemical
# STUDY CONDITIONS: Table 1; CDK7/Cyclin H/MAT1 6 nM, ATP 2 mM, 35 min at 27° C.
pIC50: −log10 of the molar value.

COMPOUND	SYSTEM TESTED	pIC50
CN1CCC[C@H](Nc2ncc(C(F)(F)F)c(-c3c[nH]c4cc(S(C)(=O)=O)ccc34)n2)C1 [Compound 364]	CDK7/Cyclin H/MAT1 complex (Homo sapiens)	6.70 to 7.70
NS(=O)(=O)c1cccc(-c2ccc3c(-c4nc(N[C@H]5CCCNC5)ncc4C(F)(F)F)c[nH]c3c2)c1 [Compound 326]	CDK7/Cyclin H/MAT1 complex (Homo sapiens)	6.70 to 7.70
CC1(O)CCN(C(=O)c2ccc3c(-c4nc(N[C@H]5CCCNC5)ncc4C(F)(F)F)c[nH]c3c2)C1 (single isomer, unassigned) [Compound 221]	CDK7/Cyclin H/MAT1 complex (Homo sapiens)	> 7.70
N#Cc1ccc2c(-c3nc(N[C@@H]4CNC[C@H](O)C4)ncc3C(F)(F)F)c[nH]c2c1 [Compound 370]	CDK7/Cyclin H/MAT1 complex (Homo sapiens)	6.70 to 7.70
FC(F)(F)c1cnc(NC2C3CCC2NC3)nc1-c1c[nH]c2ccccc12 (centres unmarked) [Compound 222]	CDK7/Cyclin H/MAT1 complex (Homo sapiens)	6.70 to 7.70

I would be grateful if you could provide pIC50 for each of the following entries.
1. CCS(=O)(=O)c1cccc2c(-c3nc(N[C@H]4CCCNC4)ncc3C(F)(F)F)c[nH]c12 [Compound 286]
2. Cc1nc(-c2ccc3c(-c4nc(N[C@H]5CCCNC5)ncc4C(F)(F)F)c[nH]c3c2)n[nH]1 [Compound 235]
3. FC(F)(F)c1cnc(N[C@@H]2CNC[C@H](c3nnc4ccccn34)C2)nc1-c1c[nH]c2ccccc12 (relative stereo) [Compound 266]
4. COCCN1CCC[C@H](Nc2ncc(Cl)c(-c3c[nH]c4ccccc34)n2)C1 [Compound 149]
5. Cc1nn(C)cc1-c1cccc2c(-c3nc(N[C@H]4CCCNC4)ncc3C(F)(F)F)c[nH]c12 [Compound 171]

1. > 7.70
2. > 7.70
3. 6.70 to 7.70
4. 6.70 to 7.70
5. > 7.70

I would be grateful if you could provide pIC50 for each of the following entries.
1. Fc1cccc(-c2ccc3c(-c4nc(N[C@H]5CCCNC5)ncc4C(F)(F)F)c[nH]c3c2)c1 [Compound 345]
2. OC1CCC(c2cccc3c(-c4nc(N[C@H]5CCCNC5)ncc4C(F)(F)F)c[nH]c23)CC1 (some centres unmarked) [Compound 185]

1. 5.30 to 6.70
2. > 7.70

----------
# SYSTEM TESTED: CDK9/Cyclin T1 complex (Homo sapiens, UniProt P50750)
# Sequence (P50750 whole entry, species assumed): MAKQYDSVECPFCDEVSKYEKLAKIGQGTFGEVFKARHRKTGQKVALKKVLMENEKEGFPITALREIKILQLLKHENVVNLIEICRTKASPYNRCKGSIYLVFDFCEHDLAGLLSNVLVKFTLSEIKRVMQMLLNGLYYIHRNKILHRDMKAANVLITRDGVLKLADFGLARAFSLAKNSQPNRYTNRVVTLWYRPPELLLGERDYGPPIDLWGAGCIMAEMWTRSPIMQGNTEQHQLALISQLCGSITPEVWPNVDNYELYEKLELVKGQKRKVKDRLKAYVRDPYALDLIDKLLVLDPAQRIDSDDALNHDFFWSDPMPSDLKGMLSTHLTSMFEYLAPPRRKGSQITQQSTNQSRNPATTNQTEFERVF
# Sequence (O60563 whole entry partner, species assumed): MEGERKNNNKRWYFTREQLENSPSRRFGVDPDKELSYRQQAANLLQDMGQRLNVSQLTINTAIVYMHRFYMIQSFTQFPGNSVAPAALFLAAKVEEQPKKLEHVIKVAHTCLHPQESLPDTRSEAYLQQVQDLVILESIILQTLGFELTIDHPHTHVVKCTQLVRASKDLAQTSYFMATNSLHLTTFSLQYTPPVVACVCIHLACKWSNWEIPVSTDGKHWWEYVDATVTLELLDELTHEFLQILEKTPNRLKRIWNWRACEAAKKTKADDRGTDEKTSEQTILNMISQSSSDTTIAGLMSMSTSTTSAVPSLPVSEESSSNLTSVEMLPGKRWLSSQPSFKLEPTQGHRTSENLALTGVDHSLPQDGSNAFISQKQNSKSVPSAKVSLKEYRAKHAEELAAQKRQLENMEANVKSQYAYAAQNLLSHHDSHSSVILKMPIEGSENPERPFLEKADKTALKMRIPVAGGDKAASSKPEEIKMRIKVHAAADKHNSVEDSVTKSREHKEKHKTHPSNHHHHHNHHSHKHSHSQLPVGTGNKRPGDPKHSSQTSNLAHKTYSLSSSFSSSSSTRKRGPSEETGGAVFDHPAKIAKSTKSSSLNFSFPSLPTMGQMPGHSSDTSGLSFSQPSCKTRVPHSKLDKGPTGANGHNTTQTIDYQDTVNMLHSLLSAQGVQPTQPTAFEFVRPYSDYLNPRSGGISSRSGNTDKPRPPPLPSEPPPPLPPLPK
# ASSAY: CDK9 inhibition assay (Caliper/LabChip EZ Reader kinase assay)
# Format: biochemical
# STUDY CONDITIONS: Table 1; CDK9/Cyclin T1 8 nM, ATP 2 mM, 15 min at 27° C.
Hi there, I'd appreciate the recorded IC50 for every entry that follows.

COMPOUND	IC50
FC(F)(F)c1cnc(N[C@H]2CCCNC2)nc1-c1c[nH]c2cc(-n3ccnc3)ccc12	0.2 to 5 µM

I would be grateful if you could provide IC50 for each of the following entries.
1. CC1(O)CCN(C(=O)c2ccc3c(-c4nc(N[C@H]5CCCNC5)ncc4C(F)(F)F)c[nH]c3c2)C1 (single isomer, unassigned)
2. CC(C)S(=O)(=O)c1ccc2c(-c3nc(N[C@H]4CCCNC4)ncc3C(F)(F)F)c[nH]c2c1
3. COC(C)c1cnc(N[C@H]2CCCNC2)nc1-c1c[nH]c2ccccc12 (some centres unmarked)

1. > 5 µM
2. 0.2 to 5 µM
3. > 5 µM

I would be grateful if you could provide IC50 for each of the following entries.
1. OC1CC=C(c2cccc3c(-c4nc(N[C@H]5CCCNC5)ncc4C(F)(F)F)c[nH]c23)CC1 (some centres unmarked)
2. Cc1n[nH]cc1-c1cccc2c(-c3nc(NC4CCCNC4)ncc3C(F)(F)F)c[nH]c12 (stereo in doubt)
3. O=S(=O)(CF)c1ccc2c(-c3nc(N[C@H]4CCCNC4)ncc3C(F)(F)F)c[nH]c2c1
4. O=C(c1cccc(-c2ccc3c(-c4nc(N[C@H]5CCCNC5)ncc4C(F)(F)F)c[nH]c3c2)c1)N1CCCC1
5. CNC(=O)c1ccc2c(-c3nc(N[C@H]4CCCNC4)ncc3C(F)(F)F)c[nH]c2n1
6. Fc1cc2[nH]cc(-c3nc(N[C@H]4CCCNC4)ncc3C(F)(F)F)c2cc1F

0.2 to 5 µM
0.02 to 0.2 µM
0.2 to 5 µM
0.2 to 5 µM
0.2 to 5 µM
0.02 to 0.2 µM

I would be grateful if you could provide IC50 for each of the following entries.
1. CC[C@@]1(O)CCN(C(=O)c2ccc3c(-c4nc(N[C@H]5CCCNC5)ncc4C(F)(F)F)c[nH]c3c2)C1 (single isomer, unassigned)
2. FC(F)(F)c1cnc(N[C@H]2CCCNC2)nc1-c1c[nH]c2cc(-c3ccn[nH]3)ccc12
3. CC1CCNCC1Nc1ncc(C(F)(F)F)c(-c2c[nH]c3ccccc23)n1 (single isomer, unassigned) [Compound 373]
4. CC(O)c1cnc(NC2CCCNC2)nc1-c1c[nH]c2ccccc12 (single isomer, unassigned) [Compound 238]

> 5 µM
0.2 to 5 µM
> 5 µM
> 5 µM

----------
# SYSTEM TESTED: CDK9/Cyclin T1 complex (Homo sapiens, UniProt P50750)
# ASSAY: CDK9 inhibition assay (Caliper/LabChip EZ Reader kinase assay)
# Assay type: biochemical
# STUDY CONDITIONS: Table 1; CDK9/Cyclin T1 8 nM, ATP 2 mM, 15 min at 27° C.
Hi there, I'd appreciate the recorded IC50 for every entry that follows.

Examples with answers:
COMPOUND	SYSTEM TESTED	MEASURED RESULT
CCc1cnc(N[C@H]2CCCNC2)nc1-c1n[nH]c2ncccc12 [Compound 262]	CDK9/Cyclin T1 complex (Homo sapiens, UniProt P50750)	0.2 to 5 µM
N#Cc1ccc2c(-c3nc(N[C@H]4CCCNC4)ncc3C(F)(F)F)c[nH]c2c1-c1ccnnc1 [Compound 261]	CDK9/Cyclin T1 complex (Homo sapiens, UniProt P50750)	0.2 to 5 µM
CCc1cnc(NC2CCCNC2)nc1-c1c[nH]c2c(F)cccc12 (stereo not shown) [Compound 144]	CDK9/Cyclin T1 complex (Homo sapiens, UniProt P50750)	0.2 to 5 µM

I would be grateful if you could provide IC50 for each of the following entries.
1. CC1(O)CCN(C(=O)c2ccc3c(-c4nc(N[C@H]5CCCNC5)ncc4C(F)(F)F)c[nH]c3c2)CC1 [Compound 282]
2. CNC(=O)c1cccc2c(-c3nc(N[C@H]4CCCNC4)ncc3C(F)(F)F)cn(COC)c12 [Compound 304]
3. CCc1cnc(N[C@H]2CCCNC2)nc1-c1c[nH]c2cc(S(C)(=O)=O)ccc12 [Compound 271]
4. CN1CCC[C@H](Nc2ncc(C(F)(F)F)c(-c3c[nH]c4cc(S(C)(=O)=O)ccc34)n2)C1 [Compound 364]
5. FC(F)(F)c1cnc(N[C@H]2CCCNC2)nc1-c1c[nH]c2cc(-c3cc[nH]n3)ccc12 [Compound 291]
6. N#Cc1ccc2c(-c3nc(N[C@H]4CCCNC4)ncc3OC(F)F)c[nH]c2c1 [Compound 301]
7. CCc1cnc(N[C@H]2CCCNC2)nc1-c1n[nH]c2cc(C#N)ccc12 [Compound 275]
8. FC1(F)CNC[C@@H](Nc2ncc(C(F)(F)F)c(-c3c[nH]c4ccccc34)n2)C1 [Compound 236]

["> 5 µM", "> 5 µM", "> 5 µM", "> 5 µM", "0.2 to 5 µM", "> 5 µM", "0.2 to 5 µM", "0.2 to 5 µM"]

----------
# SYSTEM TESTED: CDK12 (aa686-1082)/Cyclin K complex (Homo sapiens)
# Construct: CDK12 (aa686-1082)/Cyclin K complex
# Sequence (Q9NYV4 686-1082, species assumed): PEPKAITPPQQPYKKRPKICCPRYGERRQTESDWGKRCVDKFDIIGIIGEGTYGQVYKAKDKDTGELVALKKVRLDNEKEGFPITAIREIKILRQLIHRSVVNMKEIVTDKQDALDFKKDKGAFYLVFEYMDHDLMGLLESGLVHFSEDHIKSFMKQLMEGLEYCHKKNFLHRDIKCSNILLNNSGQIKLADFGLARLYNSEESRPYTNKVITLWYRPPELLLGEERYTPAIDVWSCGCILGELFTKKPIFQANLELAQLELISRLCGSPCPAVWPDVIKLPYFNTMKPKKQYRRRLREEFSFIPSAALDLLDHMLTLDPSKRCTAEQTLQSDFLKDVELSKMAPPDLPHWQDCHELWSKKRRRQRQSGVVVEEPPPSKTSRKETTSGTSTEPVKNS
# Sequence (O75909 whole entry partner, species assumed, the tested form may be a part): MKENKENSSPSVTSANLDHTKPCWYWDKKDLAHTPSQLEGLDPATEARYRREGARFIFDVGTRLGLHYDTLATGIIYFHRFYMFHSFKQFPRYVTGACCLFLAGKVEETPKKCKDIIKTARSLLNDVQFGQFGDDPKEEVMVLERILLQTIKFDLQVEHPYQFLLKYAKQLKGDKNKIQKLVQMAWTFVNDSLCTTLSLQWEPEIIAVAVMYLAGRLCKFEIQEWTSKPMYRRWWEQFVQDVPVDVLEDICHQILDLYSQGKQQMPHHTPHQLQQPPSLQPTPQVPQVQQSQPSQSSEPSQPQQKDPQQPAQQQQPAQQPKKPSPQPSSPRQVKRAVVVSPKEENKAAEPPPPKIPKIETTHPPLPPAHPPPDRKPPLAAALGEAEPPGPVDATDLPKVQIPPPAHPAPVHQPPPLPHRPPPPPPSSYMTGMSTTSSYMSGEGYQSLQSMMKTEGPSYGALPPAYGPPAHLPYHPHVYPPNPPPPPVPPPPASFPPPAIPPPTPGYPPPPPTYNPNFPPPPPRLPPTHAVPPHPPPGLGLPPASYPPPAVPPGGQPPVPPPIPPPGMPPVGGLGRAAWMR
# ASSAY: CDK12 inhibition assay (Caliper/LabChip EZ Reader kinase assay)
# Format: biochemical
# STUDY CONDITIONS: Table 1; CDK12 (aa686-1082)/Cyclin K 50 nM, ATP 2 mM, 3 hr at 27° C.; listed as 141
VALUE KIND: IC50

Look up IC50 for this molecule: FC(F)(F)c1cnc(N[C@H]2CCCNC2)nc1-c1c[nH]c2cc(-c3cccc(Oc4ccccc4)c3)ccc12 200 to 5000 nM

----------
# SYSTEM TESTED: CDK7/Cyclin H/MAT1 complex (Homo sapiens)
# ASSAY: CDK7 inhibition assay (Caliper/LabChip EZ Reader kinase assay)
# Type: biochemical
# STUDY CONDITIONS: Table 1; CDK7/Cyclin H/MAT1 6 nM, ATP 2 mM, 35 min at 27° C.
# Method: Compounds of the invention were assayed for inhibition of CDK7, CDK9, CDK12, and CDK2 activity at Biortus Biosciences (Jiangyin, Jiangsu Province, P.R. of China) using kinase assays for each CDK developed with a Caliper/LabChip EZ Reader (Perkin Elmer, Waltham, MA). […]
pIC50: −log10 of the molar value.
Hi there, I'd appreciate the recorded pIC50 for every entry that follows.

I would be grateful if you could provide pIC50 for each of the following entries.
1. N#Cc1ccc2c(-c3nc(N[C@H]4CCCNC4)ncc3C(F)(F)F)c[nH]c2n1 [Compound 251]
2. CC1(O)CCN(C(=O)c2ccc3c(-c4nc(N[C@H]5CCCNC5)ncc4C(F)(F)F)c[nH]c3c2)CC1 [Compound 282]

["> 7.70", "> 7.70"]

I would be grateful if you could provide pIC50 for each of the following entries.
1. CS(=O)(=O)c1c(C#N)ccc2c(-c3nc(N[C@H]4CCCNC4)ncc3C(F)(F)F)c[nH]c12 [Compound 232]
2. CC(C)C1CCC(Nc2ncc(C(F)(F)F)c(-c3c[nH]c4ccccc34)n2)CN1 (centres unmarked) [Compound 260]
3. CCc1cnc(N[C@H]2CCCNC2)nc1-c1c[nH]c2nc(C#N)ccc12 [Compound 287]

["> 7.70", "5.30 to 6.70", "> 7.70"]

I would be grateful if you could provide pIC50 for each of the following entries.
1. O=C(c1ccc2c(-c3nc(N[C@H]4CCCNC4)ncc3C(F)(F)F)c[nH]c2c1)N1CC[C@H](O)C1 [Compound 204]
2. CCc1cnc(N[C@H]2CCCNC2)nc1-c1c[nH]c2c(F)c(C#N)ccc12 [Compound 360]
3. FC(F)(F)c1cnc(N[C@H]2CCCNC2)nc1-c1c[nH]c2cc(-c3cc[nH]n3)ccc12 [Compound 291]

> 7.70
6.70 to 7.70
6.70 to 7.70
